- assayed.target: Human CD3εδ-Fc (human) (UniProt P04234)
- Sequence (chain, as listed by the source mutant, chain 1 of 2): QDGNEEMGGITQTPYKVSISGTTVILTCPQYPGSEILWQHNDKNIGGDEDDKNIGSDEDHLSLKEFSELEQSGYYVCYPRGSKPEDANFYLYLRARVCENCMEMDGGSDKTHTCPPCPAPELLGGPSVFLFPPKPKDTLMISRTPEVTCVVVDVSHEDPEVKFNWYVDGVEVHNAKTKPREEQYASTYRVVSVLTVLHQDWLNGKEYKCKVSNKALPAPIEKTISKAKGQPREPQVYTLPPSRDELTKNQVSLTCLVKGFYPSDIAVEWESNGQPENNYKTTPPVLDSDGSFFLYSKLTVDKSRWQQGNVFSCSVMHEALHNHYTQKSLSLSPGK
- Sequence (P04234 22-105, stated change not applied, chain 2 of 2): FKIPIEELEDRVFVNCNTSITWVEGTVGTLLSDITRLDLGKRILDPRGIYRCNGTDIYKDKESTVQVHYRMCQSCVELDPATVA
- assay.summary: KD of scFv-Fc or IgG on human CD3εδ-Fc; instrument not given
endpoint.label: pKd
FYI, pKd means -log10 of a concentration in mol per litre.

Check out these entries, answers already filled in.
binder	pKd
ADI-42594 (antibody, V domains shown, also called Ab1) VH: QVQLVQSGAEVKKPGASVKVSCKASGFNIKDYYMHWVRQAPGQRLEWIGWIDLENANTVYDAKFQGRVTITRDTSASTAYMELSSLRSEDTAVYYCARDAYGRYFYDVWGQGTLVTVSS VL: DIVMTQSPDSLAVSLGERATINCKSSQSLLNARTGKNYLAWYQQKPGQPPKLLIYWASTRESGVPDRFSGSGSGTDFTLTISSLQAEDVAVYYCKQSYFRRTFGGGTKVEIK	9.70
ADI-45968 (antibody, V domains shown, also called Ab4) VH: QVQLVQSGAEVKKPGASVKVSCKASGFNIKDYYMHWVRQAPGQRLEWIGWIDLENANTVYDAKFQGRVTITRDASASTAYMELSSLRSEDTAVYYCARDAYGRYFYDVWGQGTLVTVSS VL: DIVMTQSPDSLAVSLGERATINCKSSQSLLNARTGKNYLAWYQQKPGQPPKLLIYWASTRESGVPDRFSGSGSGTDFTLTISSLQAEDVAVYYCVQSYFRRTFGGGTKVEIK	10.17
ADI-45971 (antibody, V domains shown, also called Ab7) VH: QVQLVQSGAEVKKPGATVKVSCKASGFNIKDYYIHWVRQAPGQRLEWIGWIDLENANTVYDAKFQGRVTITRDTSASTAYMELSSLRSEDTAVYYCARDAYGRYFYDVWGQGTLVTVSS VL: DIVMTQSPDSLAVSLGERATINCKSSQSLLNARTRKNYLAWYQQKPGQPPKLLIYWASTRESGVPDRFSGSGSGTDFTLTISSLQAEDVAVYYCVQSYFRRTFGGGTKVEIK	9.96
ADI-45964 (antibody, V domains shown, also called Ab27) VH: QVQLVQSGAEVKKPGASVKVSCKASGFNIKDYYIHWVRQAPGQRLEWIGWIDLENANTVYDAKFQGRVTITRDTSASTAYMELSSLRSEDTAVYYCARDAYGRYFYDVWGQGTLVTVSS VL: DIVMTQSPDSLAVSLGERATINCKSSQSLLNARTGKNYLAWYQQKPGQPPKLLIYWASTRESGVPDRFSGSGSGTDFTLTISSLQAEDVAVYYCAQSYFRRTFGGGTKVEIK	10.01

Reported pKd for ADI-46357 (antibody, V domains shown, also called Ab30) VH: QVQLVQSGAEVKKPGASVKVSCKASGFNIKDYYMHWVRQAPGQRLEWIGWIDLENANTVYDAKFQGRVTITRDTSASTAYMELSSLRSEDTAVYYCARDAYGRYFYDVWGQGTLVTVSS VL: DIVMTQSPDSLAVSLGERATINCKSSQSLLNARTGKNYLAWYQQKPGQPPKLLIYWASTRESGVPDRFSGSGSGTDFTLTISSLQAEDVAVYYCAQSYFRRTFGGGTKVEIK : what is it?
9.01
